- Test system: NCI-H322M lung
- EXPERIMENT: NCI-60 one-dose screen, 48 h (100 = growth as untreated, 0 = no growth, -100 = all killed)
- RUN_PARAMETERS: 10 µM unless noted
Compounds without any hit were thinned out: in the full panel of roughly 83,000, 20% have a hit.
REPORTED_ENDPOINT: growth (%)
Enter your answer as a number in %; do not include the unit.

Exam item: Reported growth for CCOC(=O)C1(C(=O)OCC)N=C(c2ccccc2)C=C1c1ccccc1 : what is it?
Marked response: 103

Exam item: Next record, please: O=c1oc2ccc(F)cc2c(=O)n1-c1ccc(I)cc1F
Marked response: 8.02

Exam item: Same again, this time with CC[C@@H](C)[C@H](NC(=O)Cn1cc(CNC(=O)[C@@H](NC(=O)OCc2ccccc2)C(C)C)nn1)C(=O)O
Marked response: 108

Exam item: Now this one: Cc1ccccc1CNC(=O)C1CN(c2ccc(Cl)cc2)N(c2ccc(Cl)cc2)C1=O (stereo unspecified)
Marked response: 89.1

Exam item: Request: CCOc1cccc(/C=N\Nc2nc(=O)cc(C(=O)OC)s2)c1O
Marked response: 54.2

Exam item: Again, but for COc1ccc(OC)c(NC(=O)/C(C#N)=C/c2ccco2)c1
Marked response: 99.8

Exam item: Now try CN1C(=O)N(C)C2(c3ccccc3)n3c(s/c(=C\c4ccccc4)c3=O)=NNC12c1ccccc1 (stereo unspecified) .
Marked response: 95.3

Exam item: Another compound to check: COc1cc(OC)cc(N2C(=O)N(Cc3ccc(C(C)(C)C)cc3)c3ccccc3S2(=O)=O)c1
Marked response: 83.3

Exam item: Next: Nc1ccc(-c2ccc(-c3ccccc3N)c3[nH]c4ccccc4c23)cc1
Marked response: 41.4

Exam item: Same for Cc1ccc2c(n1)C(=O)C(Oc1ccc(Br)cc1)=CC2=O
Marked response: 99.6

Exam item: Record: O=C1/C(=C/c2cccc(O)c2)COc2ccc(O)cc21
Marked response: 98.2

Exam item: Item: COc1ccc2[nH]c(O)c(N=NC(=O)c3oc4ccccc4c3C)c2c1
Marked response: 30.6

Exam item: Query COc1ccc(-c2nsc3c2NC(=O)CC3c2cccc(OC)c2)cc1 (stereo unspecified) next
Marked response: 57

Exam item: Follow-up entry: Nc1nc(Nc2cccc(F)c2)nc2ccccc12
Marked response: 47.2

Exam item: What do you have for COc1cc(/C=C2\CN(C)C/C(=C\c3cc(CN4CCCC4)c(O)c(OC)c3)C2=O)cc(CN2CCCC2)c1O ?
Marked response: 84.7

Exam item: What do we get for O=C(COc1cc(O)c2c(=O)cc(-c3ccccc3)oc2c1)Nc1ccccc1C(F)(F)F ?
Marked response: 62.2

Exam item: Further, for Cc1ccc(Cc2cnc(NC(=O)CN3C(=O)/C(=C\c4ccccc4)SC3=S)s2)cc1 ?
Marked response: 109

Exam item: Check c1ccc(-c2ccc(-c3nc4ccccc4[nH]3)cc2)cc1 too.
Marked response: 98.9

Exam item: Also O=c1oc2ccc(F)cc2c(=O)n1-c1ccc(F)cc1F ?
Marked response: 36.7

Exam item: CCN(CC)c1cc(C)c2cc(NC(=O)c3cccc(OC)c3)ccc2n1 ?
Marked response: 109

Exam item: Okay, and CCOC(=O)c1cc2c(n1Cc1ccccc1OC)-c1oncc1CCC2 ?
Marked response: 86

* * *

- System: CAKI-1 renal
- EXPERIMENT: NCI-60 one-dose screen, 48 h (100 = growth as untreated, 0 = no growth, -100 = all killed)
- RUN_PARAMETERS: 10 µM unless noted
This is part of a sample that, as a whole, favours compounds with a hit. Of some 83,000 tested, about 20% had one in any assay.
REPORTED_ENDPOINT: growth (%)
Unit % implied. Number only.

Exam item: Please look up its growth: Nc1nc(Nc2cccc(F)c2)nc2ccccc12
Marked response: 38.3

Exam item: COc1ccc(-c2cn3c(C(=O)Nc4ccccc4Cl)c(-c4ccccc4)c4c3n2CCCC4)cc1 , same question.
Marked response: 81.6

Exam item: Check O=C(Nc1ccc(N2CCNCC2)cn1)c1[nH]ncc1Nc1ncnc2sccc12 too.
Marked response: 54.1

Exam item: Follow-up entry: O=c1oc2ccc(I)cc2c(=O)n1-c1ccc(F)cc1F
Marked response: -17.5

Exam item: Lookup O=C(Nc1ccc(F)cc1F)c1cc(Cl)ccc1O
Marked response: -14.7

Exam item: What would you report for O=C1/C(=C/c2ccc(O)cc2)COc2ccc(O)cc21 ?
Marked response: 103

Exam item: Cool, now CCC(C)(C)C(=O)O[C@H]1C[C@@H](C)C=C2C=C[C@H](C)[C@H](CC[C@@H]3CC=CC(=O)O3)[C@H]21
Marked response: 84.5

Exam item: Another: COc1cc(/C=C2\CN(C)C/C(=C\c3cc(CN4CCCCC4)c(O)c(OC)c3)C2=O)cc(CN2CCCCC2)c1O
Marked response: 55.9

Exam item: Next molecule: CC(C)c1ccc(S(=O)(=O)NC(=O)NC2CCCC2)cc1
Marked response: 96.7

Exam item: // same read-out, input: O=C(/C=C/c1ccc(C(F)(F)F)cc1)c1ccc(Nc2nc(NCCO)nc(Nc3ccc(Cl)cc3)n2)cc1
Marked response: 68.2

Exam item: Check O=C(Nc1ccc(I)cc1F)c1cc(Br)ccc1O too.
Marked response: -18.9

Exam item: # iterate: O=C(NCc1ccco1)C1CN(c2ccc(Cl)cc2)N(c2ccc(Cl)cc2)C1=O (stereo unspecified)
Marked response: 41.1

Exam item: Now consider COc1ccc(OC)c(/C=C/C(=O)c2c(C)nc3ccccc3c2/C=C/c2ccccc2)c1 and answer again.
Marked response: 54.4

Exam item: Repeat with COc1ccc(-c2nsc3c2NC(=O)CC3c2cccc(OC)c2)cc1 (stereo unspecified)
Marked response: 32.9

Exam item: Could you do the same for CN1CCN(Cc2ccc(NC(=O)c3cncc(C#Cc4nc(N)nc5[nH]ncc45)c3)cc2C(F)(F)F)CC1 , please?
Marked response: 66.5

Exam item: Another molecule to look at: Cc1ccc2cc3c(N)c4c(C)ccc(C)c4nc3nc2c1
Marked response: 7.98

Exam item: Similarly, COc1ccc(/C(C#N)=C/c2nc3c(N4CCOCC4)nc(Cl)nc3n2C)cc1OC ?
Marked response: -14.2

Exam item: What about COc1cc(C(=O)NN=C2c3ccccc3-c3ccccc32)cc(OC)c1OC ?
Marked response: 24.6

Exam item: Next: CCOC(=O)C1=C(C)c2ccc(OC)c(OC)c2C1
Marked response: 100

Exam item: Likewise for Nc1ccc(-c2ccc(-c3ccccc3N)c3[nH]c4ccccc4c23)cc1 ?
Marked response: 25.4

Exam item: Consider next the molecule Cc1ccc(F)cc1NC(=O)c1cc(Cl)ccc1Nc1ccccc1 in the same way.
Marked response: 48.2

Exam item: And what about the molecule CCCCCCC(O)(c1ccc(F)cc1)C(CN1CCOCC1)c1ccccc1 (stereo unspecified) ?
Marked response: 33.1

Exam item: Further, for Cc1nc(Nc2cn[nH]c2C(=O)Nc2ccc(CN3CCN(C)CC3)cc2)c2ccsc2n1 ?
Marked response: 61.5

Exam item: Please do the same for CC1CCCCN1CCCNC(=O)c1ccc2c(c1)sc1nc(-c3ccc(F)cc3)cn12 (stereo unspecified) as well.
Marked response: 97.4

Exam item: Follow-up entry: CCN1C(=O)N(CC)C2Nn3c(s/c(=C4\C(=O)N(C(C)C)c5ccccc54)c3=O)=NC21 (stereo unspecified)
Marked response: 45.9

Exam item: Moving on to the next molecule: O=c1cc(-c2ccccc2)oc2cc(OCc3cn(Cc4ccc(F)cc4)nn3)cc(OCc3cn(Cc4ccc(F)cc4)nn3)c12
Marked response: 54.6

Exam item: Repeat with O=C(Nc1ccccc1O)c1ccc(-c2ccc(Cl)cc2Cl)o1
Marked response: 78.7

Exam item: Next molecule up: O=C1/C(=C/c2ccc(O)cc2)COc2ccc(O)c(O)c21
Marked response: 6.4

Exam item: Further, for CCOc1cc(Cl)c(C(C)NC(=O)c2cccc(OC)c2)cc1OCC (stereo unspecified) ?
Marked response: -39.1

Exam item: Also need CCN1C(=O)N(c2ccccc2)C2Nn3c(s/c(=C4\C(=O)N(C(C)C)c5ccccc54)c3=O)=NC21 (stereo unspecified) , thanks.
Marked response: 86.9

Exam item: How about this molecule: COC(=O)C1=Nc2ccc(F)cc2/C1=C/c1sc(=S)[nH]c1O
Marked response: 20

Exam item: Another molecule: COc1ccc(N2C(=O)CC(c3cc(OC)c(OC)c(OC)c3)C3C2=NC(=O)N3C)cc1 (stereo unspecified)
Marked response: 95.1

Exam item: Another: Cc1ccc(Nc2nc(N)c3ccccc3n2)cc1Cl
Marked response: 39.7

Exam item: Check COc1ccc(Cn2c(Br)c3c(c2Br)-c2nc(NC(=O)c4ccc(OC)cc4)sc2CC3)cc1 too.
Marked response: 76.2

Exam item: Can you check O=c1c2cc(F)ccc2sc2c(Nc3ccncc3)nc3ccccc3c12 next?
Marked response: 82.5

Exam item: Record: Cc1ccccc1CNC(=O)C1CN(c2ccc(Cl)cc2)N(c2ccc(Cl)cc2)C1=O (stereo unspecified)
Marked response: 71.6

Exam item: Now the same for CCOC(=O)c1cc2c(n1Cc1ccccc1OC)-c1oncc1CCC2
Marked response: 35.8

Exam item: Another molecule: O=C(c1nc2ccccc2[nH]1)C1C(c2cccc([N+](=O)[O-])c2)C2CC3CCCCC3N2[C@@]12C(=O)Nc1cc(Cl)ccc12 (stereo partly specified)
Marked response: 12.2

Exam item: For CN(C)CCNc1cc(-c2ccccc2)nc2ccccc12 then?
Marked response: -36.1

Exam item: For CN(CCc1ccccc1)C(=S)N(C(=O)c1ccc([N+](=O)[O-])cc1)c1ccc(Cl)cc1 then?
Marked response: 85.5

Exam item: Same lookup for CCOC(=O)c1sc(-c2ccc(OS(=O)(=O)c3ccc(Br)s3)c(C=O)c2)nc1C , please.
Marked response: 3.48
